Below is a list of entries, each paired with its recorded pIC50 value.
Test System: 72 kDa type IV collagenase (Homo sapiens, UniProt P08253)
Sequence (P08253 whole entry): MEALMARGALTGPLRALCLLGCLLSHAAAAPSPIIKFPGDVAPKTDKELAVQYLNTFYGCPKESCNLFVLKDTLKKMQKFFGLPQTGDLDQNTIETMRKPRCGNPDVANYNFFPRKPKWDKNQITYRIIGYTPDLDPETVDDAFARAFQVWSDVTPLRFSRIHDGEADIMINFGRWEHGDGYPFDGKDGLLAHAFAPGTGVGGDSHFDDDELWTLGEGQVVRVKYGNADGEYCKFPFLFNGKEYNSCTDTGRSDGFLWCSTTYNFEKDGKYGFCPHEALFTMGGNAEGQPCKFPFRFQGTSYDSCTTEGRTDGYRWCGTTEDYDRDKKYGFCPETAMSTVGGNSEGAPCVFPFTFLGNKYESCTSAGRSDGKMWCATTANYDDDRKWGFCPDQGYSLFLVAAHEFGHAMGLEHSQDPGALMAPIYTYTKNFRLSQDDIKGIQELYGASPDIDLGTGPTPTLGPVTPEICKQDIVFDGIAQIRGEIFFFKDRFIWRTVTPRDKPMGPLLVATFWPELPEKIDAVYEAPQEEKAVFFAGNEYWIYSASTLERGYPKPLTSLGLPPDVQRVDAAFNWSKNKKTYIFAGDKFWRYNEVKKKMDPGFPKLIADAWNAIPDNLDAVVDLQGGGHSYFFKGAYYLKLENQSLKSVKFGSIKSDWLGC
pIC50: −log10 of the molar value. Where a SMILES comes first, the peptide text is derived from it. [ ]: non-standard residue; d: D form. The star is where a group is joined. Arg(NO2) = N=C(NCCC[C@H](N)C(=O)O)N[N+](=O)[O-]; Boc = CC(C)(C)OC(=O)*; NHOH = ON*

Molecule | Test System | pIC50
CC(C)C[C@H](NC(=O)OC(C)(C)C)C(=O)N[C@@H](C)C(=O)N[C@@H](CCCNC(N)=N[N+](=O)[O-])C(=O)NO (Boc-Leu-Ala-[Arg(NO2)]-{NHOH}) | 72 kDa type IV collagenase (Homo sapiens, UniProt P08253) | 2.54
N=C(NCCC[C@H](NC(=O)[C@H](Cc1ccc(O)cc1)NC(=O)[C@@H]1CCCN1)C(=O)NO)N[N+](=O)[O-] (H-Pro-Tyr-[Arg(NO2)]-{NHOH}) | 72 kDa type IV collagenase (Homo sapiens, UniProt P08253) | 2.12
CC(C)C[C@H](NC(=O)[C@H](Cc1ccccc1)NC(=O)OC(C)(C)C)C(=O)N[C@@H](CCCNC(=N)N[N+](=O)[O-])C(=O)NO (Boc-Phe-Leu-[Arg(NO2)]-{NHOH}) | 72 kDa type IV collagenase (Homo sapiens, UniProt P08253) | 3.39
CC(C)C[C@H](NC(=O)[C@@H](N)Cc1ccccc1)C(=O)N[C@@H](CCCNC(=N)N[N+](=O)[O-])C(=O)NO (H-Phe-Leu-[Arg(NO2)]-{NHOH}) | 72 kDa type IV collagenase (Homo sapiens, UniProt P08253) | 3.29
CC(C)[C@H](NC(=O)OC(C)(C)C)C(=O)N[C@@H](CCCNC(N)=N[N+](=O)[O-])C(=O)NO (Boc-Val-[Arg(NO2)]-{NHOH}) | 72 kDa type IV collagenase (Homo sapiens, UniProt P08253) | 2.46
CC(C)C[C@H](NC(=O)OC(C)(C)C)C(=O)NCC(=O)N[C@@H](CCCNC(N)=N[N+](=O)[O-])C(=O)NO (Boc-Leu-Gly-[Arg(NO2)]-{NHOH}) | 72 kDa type IV collagenase (Homo sapiens, UniProt P08253) | 2.53
CSCCC[C@H](N)C(=O)N[C@@H](CCCNC(=N)N[N+](=O)[O-])C(=O)NO | 72 kDa type IV collagenase (Homo sapiens, UniProt P08253) | 2.38
CC(C)C[C@H](NC(=O)[C@@H](O)[C@H](N)Cc1ccccc1)C(=O)O [UBENIMEX] | 72 kDa type IV collagenase (Homo sapiens, UniProt P08253) | 3.60
CC(C)C[C@H](NC(=O)c1ccccc1Cl)C(=O)N[C@@H](CCCNC(N)=N[N+](=O)[O-])C(=O)NO | 72 kDa type IV collagenase (Homo sapiens, UniProt P08253) | 3.20
CSCC[C@H](NC(=O)OC(C)(C)C)C(=O)N[C@@H](CCCNC(=N)N[N+](=O)[O-])C(=O)NO (Boc-Met-[Arg(NO2)]-{NHOH}) | 72 kDa type IV collagenase (Homo sapiens, UniProt P08253) | 2.71
CC(C)C[C@H](N)C(=O)NCC(=O)N[C@@H](CCCNC(N)=N[N+](=O)[O-])C(=O)NO (H-Leu-Gly-[Arg(NO2)]-{NHOH}) | 72 kDa type IV collagenase (Homo sapiens, UniProt P08253) | 2.44
N=C(NCCC[C@H](NC(=O)[C@H](Cc1ccccc1)NC(=O)c1ccc(Cl)cc1Cl)C(=O)NO)N[N+](=O)[O-] | 72 kDa type IV collagenase (Homo sapiens, UniProt P08253) | 2.09
N=C(NCCC[C@H](NC(=O)[C@@H]1CCCN1C(=O)[C@@H]1CCCN1)C(=O)NO)N[N+](=O)[O-] (H-Pro-Pro-[Arg(NO2)]-{NHOH}) | 72 kDa type IV collagenase (Homo sapiens, UniProt P08253) | 2.06
